pIC50: −log10 of the molar value.
Here's what we have: pIC50 numbers for acetylcholinesterase (AChE) (Electrophorus electricus, UniProt O42275).
OUTCOME MEASURE: pIC50

Cc1ccc(Cn2n[n+](Cc3ccccc3)c3ccc4sccc4c32)cc1 5.59
Cc1ccc(Cn2n[n+](Cc3ccc(C)cc3)c3ccc4sccc4c32)cc1 5.24
CC=Cn1n[n+](Cc2ccc([N+](=O)[O-])cc2)c2ccc3sccc3c21 4.20
CC=Cn1n[n+](Cc2ccc(C)cc2)c2ccc3sccc3c21 4.84
CC=Cn1n[n+](Cc2ccccc2)c2ccc3sccc3c21 5.37

----------
Reported inhibition at 100 µM values for the following molecules.
SYSTEM: acetylcholinesterase (AChE) (Electrophorus electricus)
ASSAY SUMMARY: AChE inhibition, modified Ellman method
Format: biochemical
CONDITION SET: read-out: AChE Inhibition (%)
OUTCOME MEASURE: inhibition at 100 µM

COc1cccc(Cn2n[n+](Cc3ccc(Cl)cc3)c3ccc4sccc4c32)c1 79.4%
CC=Cn1n[n+](Cc2ccccc2)c2ccc3sccc3c21 84.2%
Cc1ccc(Cn2n[n+](Cc3ccc(Cl)cc3)c3ccc4sccc4c32)cc1 81.9%
CC=Cn1n[n+](Cc2ccc([N+](=O)[O-])cc2)c2ccc3sccc3c21 62.6%

----------
SYSTEM: acetylcholinesterase (AChE) (Electrophorus electricus)
ASSAY SUMMARY: AChE inhibition, modified Ellman method
Type: biochemical
CONDITION SET: read-out: AChE Inhibition (%)
Form field: inhibition at 50 µM (one value per entry).

COMPOUND	inhibition at 50 µM (%)
Cc1ccc(Cn2n[n+](Cc3ccccc3)c3ccc4sccc4c32)cc1 [Compound 8]	80.7
Cc1cccc(Cn2n[n+](Cc3ccccc3)c3ccc4sccc4c32)c1 [Compound 1]	78.6
Clc1cccc(Cn2n[n+](Cc3ccc(I)cc3)c3ccc4sccc4c32)c1 [Compound 4]	74.6
Cc1ccc(Cn2n[n+](Cc3ccc([N+](=O)[O-])cc3)c3ccc4sccc4c32)cc1 [Compound 11]	83.6
Cc1cccc(Cn2n[n+](Cc3ccc(I)cc3)c3ccc4sccc4c32)c1 [Compound 3]	76.7
Cc1ccc(Cn2n[n+](Cc3ccc(C)cc3)c3ccc4sccc4c32)cc1 [Compound 9]	78.7
Cc1ccc(C[n+]2nn(Cc3cccc(C)c3)c3c4ccsc4ccc32)cc1 [Compound 2]	82.1

----------
SYSTEM: butyrylcholinesterase (BChE) (Equus caballus)
Construct: BChE (extracted from equine serum); purchased Sigma-Aldrich; host or cells: equine serum (natural source)
ASSAY SUMMARY: BChE inhibition, modified Ellman method
Assay type: biochemical
OUTCOME MEASURE: IC50 (nM)

MOLECULE	OUTCOME MEASURE	UNIT SPEC	NUMERIC VALUE
CC=Cn1n[n+](Cc2ccccc2)c2ccc3sccc3c21 [Compound 14]	IC50	nM	1000

----------
Let's go through some IC50 measurements on acetylcholinesterase (AChE) (Electrophorus electricus, UniProt O42275) together.
Sequence (O42275 24-633): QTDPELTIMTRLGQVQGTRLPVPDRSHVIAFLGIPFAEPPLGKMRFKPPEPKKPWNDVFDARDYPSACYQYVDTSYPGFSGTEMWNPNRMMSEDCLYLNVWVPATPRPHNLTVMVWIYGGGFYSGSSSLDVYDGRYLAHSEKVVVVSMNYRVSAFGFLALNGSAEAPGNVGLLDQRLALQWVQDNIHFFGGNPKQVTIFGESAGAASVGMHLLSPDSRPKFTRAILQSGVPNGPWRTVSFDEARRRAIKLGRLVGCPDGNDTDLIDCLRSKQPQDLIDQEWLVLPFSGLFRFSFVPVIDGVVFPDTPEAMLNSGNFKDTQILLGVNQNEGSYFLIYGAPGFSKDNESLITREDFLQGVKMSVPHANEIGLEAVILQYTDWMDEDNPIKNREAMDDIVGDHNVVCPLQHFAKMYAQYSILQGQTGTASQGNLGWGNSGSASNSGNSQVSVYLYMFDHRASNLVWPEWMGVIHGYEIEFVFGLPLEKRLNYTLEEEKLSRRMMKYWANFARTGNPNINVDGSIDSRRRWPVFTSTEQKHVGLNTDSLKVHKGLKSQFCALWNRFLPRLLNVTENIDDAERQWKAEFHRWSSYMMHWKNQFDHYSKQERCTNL

COMPOUND	UNIT SPEC	IC50
COc1cccc(Cn2n[n+](Cc3ccc(Cl)cc3)c3ccc4sccc4c32)c1 [Compound 7]	µM	11.8
Clc1cccc(Cn2n[n+](Cc3ccc(I)cc3)c3ccc4sccc4c32)c1 [Compound 4]	µM	14.2
Cc1ccc(Cn2n[n+](Cc3ccc([N+](=O)[O-])cc3)c3ccc4sccc4c32)cc1 [Compound 11]	µM	3.2
Cc1cccc(Cn2n[n+](Cc3ccccc3)c3ccc4sccc4c32)c1 [Compound 1]	µM	6.3
Cc1ccc(Cn2n[n+](Cc3ccc(Cl)cc3)c3ccc4sccc4c32)cc1 [Compound 10]	µM	6.5
Cc1ccc(C[n+]2nn(Cc3cccc(C)c3)c3c4ccsc4ccc32)cc1 [Compound 2]	µM	4.1
Cc1cccc(Cn2n[n+](Cc3ccc(I)cc3)c3ccc4sccc4c32)c1 [Compound 3]	µM	5.9
CC=Cn1n[n+](Cc2ccc(Cl)cc2)c2ccc3sccc3c21 [Compound 16]	µM	5.4

----------
SYSTEM: butyrylcholinesterase (BChE) (Equus caballus, UniProt P81908)
Construct: BChE (extracted from equine serum); purchased Sigma-Aldrich; host or cells: equine serum (natural source)
Sequence (P81908 whole entry): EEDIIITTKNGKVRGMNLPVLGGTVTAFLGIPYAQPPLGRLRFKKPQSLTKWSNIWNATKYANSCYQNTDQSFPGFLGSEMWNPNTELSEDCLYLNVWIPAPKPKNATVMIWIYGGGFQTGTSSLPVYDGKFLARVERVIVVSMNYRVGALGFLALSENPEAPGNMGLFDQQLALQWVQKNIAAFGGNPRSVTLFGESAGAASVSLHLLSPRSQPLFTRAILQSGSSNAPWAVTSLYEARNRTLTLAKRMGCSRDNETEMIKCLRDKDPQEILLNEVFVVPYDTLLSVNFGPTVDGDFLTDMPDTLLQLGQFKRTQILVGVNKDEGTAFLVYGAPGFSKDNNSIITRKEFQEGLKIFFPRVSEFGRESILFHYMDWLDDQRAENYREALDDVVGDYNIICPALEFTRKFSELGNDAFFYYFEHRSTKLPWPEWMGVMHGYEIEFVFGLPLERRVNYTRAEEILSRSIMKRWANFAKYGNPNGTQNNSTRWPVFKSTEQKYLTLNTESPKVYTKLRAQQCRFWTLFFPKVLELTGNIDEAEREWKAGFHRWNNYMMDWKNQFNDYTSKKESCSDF
ASSAY SUMMARY: BChE inhibition, modified Ellman method
Assay type: biochemical
CONDITION SET: relative IC50 from nonlinear regression; tested 0.01–250 μM; read-out: BChE IC50
pIC50: −log10 of the molar value.
In this section, each of the compounds is paired with its reported pIC50.
OUTCOME MEASURE: pIC50

COc1cccc(Cn2n[n+](Cc3ccc(Cl)cc3)c3ccc4sccc4c32)c1 6.00
Cc1cccc(Cn2n[n+](Cc3ccccc3)c3ccc4sccc4c32)c1 6.40
Cc1ccc(Cn2n[n+](Cc3ccc(Cl)cc3)c3ccc4sccc4c32)cc1 5.82
Cc1ccc(C[n+]2nn(Cc3cccc(C)c3)c3c4ccsc4ccc32)cc1 6.52
Cc1ccc(Cn2n[n+](Cc3ccc(C)cc3)c3ccc4sccc4c32)cc1 5.46
CC=Cn1n[n+](Cc2ccc(Cl)cc2)c2ccc3sccc3c21 5.64
Cc1ccc(Cn2n[n+](Cc3ccccc3)c3ccc4sccc4c32)cc1 6.40
CC=Cn1n[n+](Cc2ccc([N+](=O)[O-])cc2)c2ccc3sccc3c21 4.94
CC=Cn1n[n+](Cc2ccc(C)cc2)c2ccc3sccc3c21 6.05
Clc1cccc(Cn2n[n+](Cc3ccc(I)cc3)c3ccc4sccc4c32)c1 6.10
Cc1cccc(Cn2n[n+](Cc3ccc(I)cc3)c3ccc4sccc4c32)c1 6.15
Cc1ccc(Cn2n[n+](Cc3ccc([N+](=O)[O-])cc3)c3ccc4sccc4c32)cc1 5.57
